Exercise: for every item that follows, state its recorded IC50.
Molecular target: 3',5'-cyclic-AMP phosphodiesterase 4B (Homo sapiens, UniProt Q07343)
Sequence (Q07343 whole entry): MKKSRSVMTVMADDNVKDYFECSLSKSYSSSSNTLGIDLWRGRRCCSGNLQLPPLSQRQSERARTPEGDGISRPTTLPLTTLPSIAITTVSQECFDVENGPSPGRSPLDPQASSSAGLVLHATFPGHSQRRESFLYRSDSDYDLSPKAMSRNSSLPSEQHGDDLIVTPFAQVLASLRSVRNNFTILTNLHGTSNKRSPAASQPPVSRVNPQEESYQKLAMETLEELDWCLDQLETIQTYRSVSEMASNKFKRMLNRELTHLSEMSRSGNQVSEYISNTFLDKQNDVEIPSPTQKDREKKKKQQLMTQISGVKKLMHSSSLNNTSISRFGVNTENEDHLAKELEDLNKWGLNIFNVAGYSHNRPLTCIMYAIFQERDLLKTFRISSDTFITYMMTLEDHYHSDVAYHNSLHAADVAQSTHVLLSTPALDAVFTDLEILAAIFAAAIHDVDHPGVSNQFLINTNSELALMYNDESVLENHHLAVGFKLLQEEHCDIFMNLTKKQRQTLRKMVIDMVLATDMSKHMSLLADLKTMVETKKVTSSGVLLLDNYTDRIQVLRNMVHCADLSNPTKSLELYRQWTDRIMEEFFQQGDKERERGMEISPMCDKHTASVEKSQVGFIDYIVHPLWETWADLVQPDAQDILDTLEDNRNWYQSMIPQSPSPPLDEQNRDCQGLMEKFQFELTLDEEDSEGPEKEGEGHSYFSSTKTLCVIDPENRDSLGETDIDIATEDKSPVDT
Test: Inhibition of PDE4B in human PBMC assessed as reduction in LPS-induced TNFalpha release preincubated for 30 mins followed by LPS stimulation and measured after 18 hrs by TR-FRET assay
Answers are plain numbers, in µM.

// sample N#C/N=C1/SCCN1C(=O)c1coc(-c2c(F)cccc2F)n1 , its IC50 was 49.3

Briefly, IC50 measured for N#C/N=C1/SCCN1Cc1ccc(-c2c(F)cccc2F)o1 : 82.3

Input N#C/N=C1/SCCN1Cc1ccc(-c2ccc(F)cc2)o1 . Output IC50: 45.8

API: the following record is the query input.
Entry COc1ccc(-c2ccc(C(=O)N3CCS/C3=N/C#N)o2)cc1 — recorded IC50 = 15.3
